Give IC50 for every item shown.
# SYSTEM_TESTED: Estrogen receptor beta (Homo sapiens)
# PROTOCOL_DETAILS: Antagonist activity at human Gal4-ERbeta assessed as inhibition of 17beta-estradiol-induced effect by reporter gene assay
# EXPERIMENTAL_CONDITIONS: read-out: IC50

Consider CCCCC(CCCC)(c1ccc(O)cc1)c1ccc(O)cc1 . Its measured IC50 is 180 nM

Consider CCC(CC)(c1ccc(O)cc1)c1ccc(O)c(C)c1 . Its measured IC50 is 380 nM

Consider CCC(CC)(c1ccc(N)c(C)c1)c1ccc(O)c(C)c1 . Its measured IC50 is 43 nM

Consider CCC(CC)(c1ccc(O)c(C)c1)c1ccc(O)c(C)c1 . Its measured IC50 is 260 nM

Consider CCCCC(CCCC)(c1ccc(O)c(CC)c1)c1ccc(O)c(CC)c1 . Its measured IC50 is 4500 nM

Consider CCCC(CCC)(c1ccc(O)c(CC)c1)c1ccc(O)c(CC)c1 . Its measured IC50 is 2600 nM

---

Give pIC50 for every item shown.
# SYSTEM_TESTED: Estrogen receptor beta (Homo sapiens, UniProt Q92731)
# Sequence (Q92731 whole entry, the tested form may be a part): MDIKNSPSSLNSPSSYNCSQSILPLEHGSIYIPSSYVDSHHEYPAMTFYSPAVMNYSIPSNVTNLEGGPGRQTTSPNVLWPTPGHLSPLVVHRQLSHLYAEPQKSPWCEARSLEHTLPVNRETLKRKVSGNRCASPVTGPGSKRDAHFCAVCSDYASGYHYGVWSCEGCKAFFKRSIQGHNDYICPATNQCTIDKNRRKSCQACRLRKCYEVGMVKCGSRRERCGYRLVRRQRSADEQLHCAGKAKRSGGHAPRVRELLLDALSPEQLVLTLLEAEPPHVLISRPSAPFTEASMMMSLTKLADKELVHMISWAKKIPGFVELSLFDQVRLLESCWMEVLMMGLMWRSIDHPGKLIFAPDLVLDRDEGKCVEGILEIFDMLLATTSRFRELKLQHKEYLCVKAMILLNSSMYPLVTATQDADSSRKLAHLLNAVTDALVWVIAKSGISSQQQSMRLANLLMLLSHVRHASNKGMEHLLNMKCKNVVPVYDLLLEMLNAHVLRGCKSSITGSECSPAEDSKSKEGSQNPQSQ
# PROTOCOL_DETAILS: Antagonist activity at human Gal4-ERbeta assessed as inhibition of 17beta-estradiol-induced effect by reporter gene assay
# EXPERIMENTAL_CONDITIONS: read-out: IC50
Answer as the number alone; pIC50 is minus log10 of concentration in mol/L.

Consider CC[Si](CC)(c1ccc(O)c(C)c1)c1ccc(O)c(C)c1 . Its measured pIC50 is 6.10

Consider CCc1cc(C(CC)(CC)c2ccc(O)c(CC)c2)ccc1O . Its measured pIC50 is 5.89

Consider Cc1cc(C2(c3ccc(O)c(C)c3)CCCCC2)ccc1O . Its measured pIC50 is 6.10

Consider CCCC(CCC)(c1ccc(O)cc1)c1ccc(O)cc1 . Its measured pIC50 is 5.66

Consider CCC(CC)(c1cc(C)c(O)c(C)c1)c1cc(C)c(O)c(C)c1 . Its measured pIC50 is 6.52

---

# SYSTEM_TESTED: Androgen receptor (Homo sapiens, UniProt P10275)
# Sequence (P10275 whole entry): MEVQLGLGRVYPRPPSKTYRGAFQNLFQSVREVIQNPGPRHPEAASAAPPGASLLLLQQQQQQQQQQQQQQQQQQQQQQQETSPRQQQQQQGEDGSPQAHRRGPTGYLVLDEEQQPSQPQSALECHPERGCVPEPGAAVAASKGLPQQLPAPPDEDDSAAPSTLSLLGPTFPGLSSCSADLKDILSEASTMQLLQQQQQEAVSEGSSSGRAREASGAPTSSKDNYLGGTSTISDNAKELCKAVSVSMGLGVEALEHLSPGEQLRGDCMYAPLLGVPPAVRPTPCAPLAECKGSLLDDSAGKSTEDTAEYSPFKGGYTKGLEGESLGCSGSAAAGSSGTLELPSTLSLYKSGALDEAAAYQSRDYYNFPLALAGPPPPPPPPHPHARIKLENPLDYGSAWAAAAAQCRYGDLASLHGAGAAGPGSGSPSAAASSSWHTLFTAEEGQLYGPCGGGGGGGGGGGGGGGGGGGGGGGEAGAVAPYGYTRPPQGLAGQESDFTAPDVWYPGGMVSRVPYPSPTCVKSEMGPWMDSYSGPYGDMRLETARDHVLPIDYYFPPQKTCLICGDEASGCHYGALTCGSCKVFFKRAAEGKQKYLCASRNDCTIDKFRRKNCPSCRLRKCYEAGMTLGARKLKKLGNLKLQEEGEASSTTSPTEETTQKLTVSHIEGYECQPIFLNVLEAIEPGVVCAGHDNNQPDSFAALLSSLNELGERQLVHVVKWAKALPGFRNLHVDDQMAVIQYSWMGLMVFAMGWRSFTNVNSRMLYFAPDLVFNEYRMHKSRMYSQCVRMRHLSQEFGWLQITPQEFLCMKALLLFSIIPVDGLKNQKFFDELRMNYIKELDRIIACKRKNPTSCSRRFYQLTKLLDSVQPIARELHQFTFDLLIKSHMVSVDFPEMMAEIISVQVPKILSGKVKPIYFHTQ
# PROTOCOL_DETAILS: Antagonist activity at human pSG5-AR assessed as inhibition of dihydrotestosterone-induced effect by reporter gene assay
IC50 under 5 µM gets true (1), anything at or over 5 µM gets false (0).

q: Does the reported IC50 of CCC(CC)(c1ccc(O)c(C)c1)c1ccc(O)c(C)c1 stay below 5 µM?
a: true (1)

q: Does the reported IC50 of CCCC[Si](CCCC)(c1ccc(O)c(C)c1)c1ccc(O)c(C)c1 stay below 5 µM?
a: false (0)

q: Does the reported IC50 of CCCC(CCC)(c1ccc(O)c(C)c1)c1ccc(O)c(C)c1 stay below 5 µM?
a: false (0)

q: Does the reported IC50 of CC[Si](CC)(c1ccc(O)c(C)c1)c1ccc(O)c(C)c1 stay below 5 µM?
a: true (1)

q: Does the reported IC50 of CC(C)(c1ccc(O)cc1)c1ccc(O)cc1 stay below 5 µM?
a: false (0)

q: Does the reported IC50 of CCC(CC)(c1ccc(N)c(C)c1)c1ccc(O)c(C)c1 stay below 5 µM?
a: false (0)

---

# SYSTEM_TESTED: Estrogen receptor (Homo sapiens, UniProt P03372)
# Sequence (P03372 whole entry, the tested form may be a part): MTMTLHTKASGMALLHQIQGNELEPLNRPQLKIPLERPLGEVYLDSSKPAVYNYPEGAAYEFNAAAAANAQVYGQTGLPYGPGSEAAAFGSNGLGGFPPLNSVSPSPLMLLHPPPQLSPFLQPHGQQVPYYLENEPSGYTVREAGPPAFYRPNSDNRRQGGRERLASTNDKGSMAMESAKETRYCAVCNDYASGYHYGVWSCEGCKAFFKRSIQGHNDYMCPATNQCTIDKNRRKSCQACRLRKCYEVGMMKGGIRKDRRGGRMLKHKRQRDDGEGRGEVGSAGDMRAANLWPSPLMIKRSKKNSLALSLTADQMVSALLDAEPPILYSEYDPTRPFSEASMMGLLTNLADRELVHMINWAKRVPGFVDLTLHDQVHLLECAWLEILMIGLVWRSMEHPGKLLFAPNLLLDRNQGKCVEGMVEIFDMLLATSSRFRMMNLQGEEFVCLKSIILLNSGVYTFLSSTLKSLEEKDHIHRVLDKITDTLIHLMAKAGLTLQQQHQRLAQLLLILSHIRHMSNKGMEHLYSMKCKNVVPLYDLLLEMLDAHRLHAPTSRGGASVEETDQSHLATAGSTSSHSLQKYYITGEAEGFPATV
# PROTOCOL_DETAILS: Agonist activity at human Gal4-ERalpha by reporter gene assay
RECORDED_ENDPOINT: EC50

# example entries with known answers
chem_smiles=CCC(CC)(c1ccc(O)c(C)c1)c1ccc(O)c(C)c1 recorded_endpoint=EC50 data_value="Not Active"
chem_smiles=Cc1cc(C2(c3ccc(O)c(C)c3)CCCCC2)ccc1O recorded_endpoint=EC50 data_value="Not Active"
chem_smiles=CCCC(CCC)(c1ccc(O)c(CC)c1)c1ccc(O)c(CC)c1 recorded_endpoint=EC50 data_value="Not Active"
chem_smiles=CCCCC(CCCC)(c1ccc(O)cc1)c1ccc(O)cc1 recorded_endpoint=EC50 data_value="Not Active"
chem_smiles=CCC(CC)(c1ccc(N)c(C)c1)c1ccc(O)c(C)c1 recorded_endpoint=EC50 data_value="Not Active"

We now examine a further compound.
Consider CC[Si](CC)(c1ccc(O)c(C)c1)c1ccc(O)c(C)c1 . Its measured EC50 is Not Active
